Molecular target: hROMK (hKir1.1) (Homo sapiens)
Sequence (P48048 1-391): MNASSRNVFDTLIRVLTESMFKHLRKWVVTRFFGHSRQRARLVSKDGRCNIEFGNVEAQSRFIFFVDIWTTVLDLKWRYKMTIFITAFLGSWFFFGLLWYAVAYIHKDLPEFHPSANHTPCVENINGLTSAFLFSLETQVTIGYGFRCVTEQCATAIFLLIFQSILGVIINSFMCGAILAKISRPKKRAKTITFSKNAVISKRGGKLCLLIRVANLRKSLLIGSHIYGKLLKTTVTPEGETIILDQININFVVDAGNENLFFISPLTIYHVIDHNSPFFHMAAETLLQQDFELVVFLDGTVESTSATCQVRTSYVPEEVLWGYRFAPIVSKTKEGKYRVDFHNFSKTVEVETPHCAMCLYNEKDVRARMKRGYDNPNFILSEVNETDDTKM
Assay: Thallium Flux Assay (ROMK channel functional thallium flux, FLIPR-Tetra)
Details: HEK293 cells stably expressing hROMK (hKir1.1); 30 min compound incubation
Reported Endpoint: IC50 (nM)

# annotated cases, reported IC50 shown
> print(dat)
                                   compound  endpoint.value
1  CC1CC2(CCN(CCc3cnc(-n4cnnn4)cn3)CC2)C(=O)N1C1=CC(=O)OC1 (single isomer, unassigned) [Example 242]              40
2  COC1CN(CCc2nnc(-n3cnnn3)cc2C)CCC12CCN(C1=C(C)C(=O)OC1)C2=O (single isomer, unassigned) [Example 260]             120
3  CC1=C(N2C(=O)C3(CCN(C[C@H](O)c4ccc(-n5cnnn5)nn4)CC3)CC2C)COC1=O (single isomer, unassigned) [Example 123]              60
4  CC1=C(N2C(=O)C3(CCN(C[C@@H](O)c4ccc(-n5cnnn5)nn4)CC3)CC2C)COC1=O (single isomer, unassigned) [Example 126]              90
5  CC1=C(N2CCC3(CCN(C(C)(C)C(O)c4ccc(-n5cnnn5)nc4)CC3)C2=O)COC1=O (single isomer, unassigned) [Example 298]              10

I = CC1=CC2(CCN(C[C@H](O)c3ccc(-n4cnnn4)nc3)CC2)C(=O)N1C1=CC(=O)OC1 [Example 174]
II = CC1=C(N2CCC3(CCN(C[C@H](O)c4ccc(-n5cnnn5)nc4C)CC3O)C2=O)COC1=O (single isomer, unassigned) [Example 203]
III = CC1=C(N2CCC3(CCN(C[C@@H](O)c4cnc(-n5cnnn5)c(C)n4)CC3)C2=O)COC1=O [Example 88]
### Prompt Arrange the 3 entries by IC50 so the values rise. Write the labels, ordered according to the request.
### Response I, III, II
(I: 20 nM, III: 40 nM, II: 150 nM)

I = Cc1nc(-n2cnnn2)ccc1[C@@H](O)CN1CCC2(CC1)CCN(C1=CC(=O)OC1)C2=O [Example 3]
II = CC1=C(N2C=CC3(CCN([C@@H](C)Cc4nnc(-n5cnnn5)cc4C)CC3)C2=O)COC1=O (single isomer, unassigned) [Example 274]
### Prompt Which is greater in IC50, the first item I or the second item II ? Returns: label corresponding to the selected item.
### Response I

----------
Target: hROMK (hKir1.1) (Homo sapiens, UniProt P48048)
Experiment: Thallium Flux Assay (ROMK channel functional thallium flux, FLIPR-Tetra)
Settings: HEK293 cells stably expressing hROMK (hKir1.1); 30 min compound incubation
Reported Endpoint: IC50 (nM)

# annotated cases, reported IC50 shown
> print(dat)
                                   molecule  unit  endpoint.value
1  CC1=C(N2CCC3(CCN(C[C@@H](O)c4ccc(-n5cnnn5)nc4C)CC3)C2=O)COC1=O [Example 21]    nM              40
2  COc1cc(-n2cnnn2)ccc1[C@@H](O)CN1CCC2(CC1)CCN(C1=C(C)C(=O)OC1)C2=O [Example 119]    nM              10
3  CC1=C(N2CC[C@@]3(CCN(C[C@H](O)c4cnc(-n5cnnn5)cn4)CC3F)C2=O)COC1=O (mixture of isomers) [Example 225]    nM             150

A = CC1=C(N2C(=O)C3(CCN(C[C@H](O)c4cnc(-n5cnnn5)cn4)CC3)CC2C)COC1=O (single isomer, unassigned) [Example 67]
B = CC1=C(N2CCC3(CCN(C[C@H](O)c4ccc(-n5cnnn5)nc4)CC3F)C2=O)COC1=O (single isomer, unassigned) [Example 192]
C = CC1=C(N2CC(O)C3(CCN(CCc4ccc(-n5cnnn5)nc4)CC3)C2=O)COC1=O (single isomer, unassigned) [Example 244]
D = O=C1C=C(N2C(=O)C3(CCN(C[C@H](O)c4ccc(-n5cnnn5)nn4)CC3)CC2C2CC2)CO1 (mixture of isomers) [Example 210]
### Prompt Arrange the 4 entries by IC50 so the values rise. Write the labels, ordered according to the request.
### Response B, C, D, A

----------
Target: hROMK (hKir1.1) (Homo sapiens)
Assay: Thallium Flux Assay (ROMK channel functional thallium flux, FLIPR-Tetra)
Conditions: HEK293 cells stably expressing hROMK (hKir1.1); 30 min compound incubation
Reported Endpoint: IC50 (nM)

# annotated cases, reported IC50 shown
> print(dat)
                                   compound             experimental.target  unit  endpoint.value
1  CC1CC2(CCN(C(C)(C)C(O)c3cnc(-n4cnnn4)cn3)CC2)C(=O)N1C1=CC(=O)OC1 (single isomer, unassigned) [Example 302]  hROMK (hKir1.1) (Homo sapiens)    nM             100
2  CC1=C(N2CCC3(CCN(C[C@@H](O)c4cccc(-n5cnnn5)n4)CC3)C2=O)COC1=O [Example 74]  hROMK (hKir1.1) (Homo sapiens)    nM              90

P = CC1=C(N2CCC3(CCN(CCc4ccc(-n5cnnn5)nn4)CC3)C2=O)COC1=O [Example 232]
Q = CC1=C(N2C=CC3(CCN(CCc4nnc(-n5cnnn5)cc4C)CC3)C2=O)COC1=O [Example 248]
### Prompt Which is greater in IC50, the first item P or the second item Q ? Returns: label corresponding to the selected item.
### Response Q

----------
Target: hROMK (hKir1.1) (Homo sapiens, UniProt P48048)
Sequence (P48048 1-391): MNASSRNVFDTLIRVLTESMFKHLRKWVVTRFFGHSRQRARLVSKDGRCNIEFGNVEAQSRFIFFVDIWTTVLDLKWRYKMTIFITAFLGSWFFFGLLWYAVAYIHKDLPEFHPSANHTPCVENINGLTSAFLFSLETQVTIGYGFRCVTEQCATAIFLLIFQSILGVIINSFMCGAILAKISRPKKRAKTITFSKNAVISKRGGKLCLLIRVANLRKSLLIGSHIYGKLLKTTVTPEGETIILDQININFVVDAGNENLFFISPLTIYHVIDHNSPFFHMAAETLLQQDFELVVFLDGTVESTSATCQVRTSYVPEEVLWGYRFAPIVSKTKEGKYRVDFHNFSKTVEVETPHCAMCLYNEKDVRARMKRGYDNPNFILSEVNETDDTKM
Assay: Thallium Flux Assay (ROMK channel functional thallium flux, FLIPR-Tetra)
Conditions: HEK293 cells stably expressing hROMK (hKir1.1); 30 min compound incubation
pIC50: −log10 of the molar value.
Reported Endpoint: pIC50

> print(dat)
                                   compound  endpoint.value
1  CC1=C(N2C(=O)C3(CC2C)CC2CCC(C3)N2C[C@@H](O)c2ccc(-n3cnnn3)nc2)COC1=O (single isomer, unassigned) [Example 136]            7.10
2  CC1=C(N2CCC3(CCN(C(C)(C)C(O)c4ccc(-n5cnnn5)cn4)CC3)C2=O)COC1=O (single isomer, unassigned) [Example 299]            8.00
3  CC1=C(N2CCC3(CCN(C(CO)Cc4ccc(-n5cnnn5)nc4)CC3)C2=O)COC1=O (single isomer, unassigned)            7.70
4  CC1=C(N2CCC3(CCN(C[C@@H](O)c4nnc(-n5cnnn5)cc4C)CC3)C2=O)COC1=O            8.00

1 = CC1=C(N2CCC3(CCN(C[C@H](O)c4ccc(-n5cnnn5)nn4)CC3F)C2=O)COC1=O (single isomer, unassigned) [Example 196]
2 = CC1=C(N2CCC3(CCN(C[C@H](O)c4ccc(-n5cnnn5)nn4)CC3F)C2=O)COC1=O (single isomer, unassigned) [Example 183]
### Prompt Which is greater in pIC50, the first item 1 or the second item 2 ? Returns: label corresponding to the selected item.
### Response 1
(1: 7.40, 2: 7.10)

P = CC1=C(N2C=CC3(CCN(C[C@H](O)c4cnc(-n5cnnn5)cn4)CC3)C2=O)COC1=O
Q = CC1=CN(C2=C(C)C(=O)OC2)C(=O)C12CCN(CCc1nnc(-n3cnnn3)cc1C)CC2
### Prompt Between the entries labeled P and Q , whose measured pIC50 is lower? Returns: label corresponding to the selected item.
### Response P
(P: 7.00, Q: 7.52)

a = O=C1C=C(N2C(=O)C3(CCN(C[C@H](O)c4ccc(-n5cnnn5)nc4)CC3)CC2C2CC2)CO1 (mixture of isomers) [Example 214]
b = CC1=C(N2CCC3(CCN(C[C@@H](C)c4ccc(-n5cnnn5)nn4)CC3)C2=O)COC1=O (single isomer, unassigned)
c = CC1CC2(CCN(C(C)(C)C(O)c3cnc(-n4cnnn4)cn3)CC2)C(=O)N1C1=CC(=O)OC1 (single isomer, unassigned) [Example 303]
d = CC1=C(N2CCC3(CCN(C[C@H](O)c4ccnc(-n5cnnn5)c4)CC3)C2=O)COC1=O
e = CC1=C(N2CCC3(CCN(CCc4ccc(-n5cnnn5)nc4)CC3)C2=O)COC1=O
### Prompt Arrange the 5 entries by pIC50 so the values rise. Write the labels, ordered according to the request.
### Response c, d, b, a, e
(c: 5.70, d: 6.85, b: 7.10, a: 7.52, e: 8.00)
